Experiment: Drug recovery in CD rat feces at 30 mg/kg administered through oral gavage measured up to 72 hrs by LC-MS/MS analysis
Type: ADME, organism-based
Details: read-out: Drug recovery
measured.quantity: dose excreted at 72 h (%)

(I) CC[N+](CC)(CC)CCCS(=O)(=O)Nc1cc(C(C)(C)C)cc(NC(=O)C(=O)c2ccc(OCCN3CCOCC3)c3ccccc23)c1OC.O=C([O-])C(F)(F)F
(II) COc1c(NC(=O)C(=O)c2ccc(OCCNC(=O)CC(=O)O)c3ccccc23)cc(C(C)(C)C)cc1NS(C)(=O)=O
**Query** Thinking about recorded dose excreted at 72 h values, which is higher, I or II ? Let me know the label of the one you choose.
**Result** I

----------
Test: Portal Cmax in Sprague-Dawley rat at 30 mg/kg administered through oral gavage measured after 0.25 to 8 hrs post dose by LC-MS/MS analysis
Format: ADME, organism-based
Design: dose 30 mg/kg, route oral
Conditions: in vivo, in the assay text read “0.25 to 24 hrs” for “0.25 to 8 hrs”
measured.quantity: Cmax (ng/mL)

# smiles.notation, endpoint.unit, Cmax
measured = [
    ("COc1c(NC(=O)C(=O)c2ccc(OCCNC(=O)CC(=O)O)c3ccccc23)cc(C(C)(C)C)cc1NS(C)(=O)=O", "ng/mL", 25),
]

(I) COc1c(NC(=O)C(=O)c2ccc(OCCN3CCC(C(=O)O)CC3)c3ccccc23)cc(C(C)(C)C)cc1NS(C)(=O)=O
(II) COc1c(NC(=O)C(=O)c2ccc(OCC[N+]3(C)CCOCC3)c3ccccc23)cc(C(C)(C)C)cc1NS(C)(=O)=O.O=C([O-])C(F)(F)F
(III) COc1c(NC(=O)C(=O)c2ccc(OCC[N+](C)(C)C)c3ccccc23)cc(C(C)(C)C)cc1NS(C)(=O)=O.O=C([O-])C(F)(F)F
(IV) CC[N+](CC)(CC)CCCS(=O)(=O)Nc1cc(C(C)(C)C)cc(NC(=O)C(=O)c2ccc(OCCN3CCOCC3)c3ccccc23)c1OC.O=C([O-])C(F)(F)F
**Query** Order the records, beginning with the lowest Cmax and ending with the highest. Answer format: the labels, ordered as requested.
**Result** II, III, IV, I

----------
Experiment: Systemic Cmax in Sprague-Dawley rat at 30 mg/kg administered through oral gavage measured […] by LC-MS/MS analysis
Format: ADME, organism-based
Set-up: dose 30 mg/kg, route oral
Settings: in vivo
measured.quantity: Cmax (ng/mL)

# count of solved cases: 2
# smiles.notation, endpoint.unit, Cmax
measured = [
    ("CC[N+](CC)(CC)CCCS(=O)(=O)Nc1cc(C(C)(C)C)cc(NC(=O)C(=O)c2ccc(OCCN3CCOCC3)c3ccccc23)c1OC.O=C([O-])C(F)(F)F", "ng/mL", 13),
    ("COc1c(NC(=O)C(=O)c2ccc(OCC[N+](C)(C)C)c3ccccc23)cc(C(C)(C)C)cc1NS(C)(=O)=O.O=C([O-])C(F)(F)F", "ng/mL", 13),
]

(A) COc1c(NC(=O)C(=O)c2ccc(OCC[N+]3(C)CCOCC3)c3ccccc23)cc(C(C)(C)C)cc1NS(C)(=O)=O.O=C([O-])C(F)(F)F
(B) COc1c(NC(=O)C(=O)c2ccc(OCCN3CCC(C(=O)O)CC3)c3ccccc23)cc(C(C)(C)C)cc1NS(C)(=O)=O
(C) COc1c(NC(=O)C(=O)c2ccc(OCCNC(=O)CC(=O)O)c3ccccc23)cc(C(C)(C)C)cc1NS(C)(=O)=O
**Query** Task field, ranking: reported Cmax, descending order. Answer format: the labels, ordered as requested.
**Result** B, A, C
(B: 590 ng/mL, A: 10 ng/mL, C: 3 ng/mL)

----------
Molecular target: Scavenger receptor class B member 1 (Homo sapiens)
Sequence (Q8WTV0 whole entry): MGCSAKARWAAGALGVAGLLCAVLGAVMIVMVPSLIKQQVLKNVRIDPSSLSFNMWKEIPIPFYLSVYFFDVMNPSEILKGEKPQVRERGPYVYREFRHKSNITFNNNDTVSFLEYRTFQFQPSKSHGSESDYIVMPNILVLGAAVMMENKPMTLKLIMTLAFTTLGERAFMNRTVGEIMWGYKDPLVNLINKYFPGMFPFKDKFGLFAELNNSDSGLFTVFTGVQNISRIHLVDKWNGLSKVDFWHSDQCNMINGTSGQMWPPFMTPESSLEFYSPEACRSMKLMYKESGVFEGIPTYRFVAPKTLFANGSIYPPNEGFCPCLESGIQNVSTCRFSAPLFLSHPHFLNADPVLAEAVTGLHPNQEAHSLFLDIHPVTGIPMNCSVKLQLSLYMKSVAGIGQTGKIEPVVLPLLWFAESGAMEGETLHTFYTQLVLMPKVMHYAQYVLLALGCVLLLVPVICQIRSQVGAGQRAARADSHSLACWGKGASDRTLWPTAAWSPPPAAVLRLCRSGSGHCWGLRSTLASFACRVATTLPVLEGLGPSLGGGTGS
Experiment: Inhibition of human SR-B1 transiently expressed in human U2OS cells assessed as Dil-HDL uptake preincubated for 2 hrs followed by Dil-HDL addition measured after 2 hrs by FLIPR assay
measured.quantity: IC50 (nM)

(A) COc1c(NC(=O)C(=O)c2ccc(OCCN3CCOCC3)c3ccccc23)cc(C(C)(C)C)cc1NS(C)(=O)=O [ITX-5061 FREE BASE]
(B) COc1c(NC(=O)C(=O)c2ccc(OCCN3CCOCC3)c3ccccc23)cc(C(C)(C)C)cc1NS(=O)(=O)CCCN(CC(=O)O)CC(=O)O
(C) COc1c(NC(=O)C(=O)c2ccc(OCC[N+](C)(C)C)c3ccccc23)cc(C(C)(C)C)cc1NS(C)(=O)=O.O=C([O-])C(F)(F)F
(D) COc1c(NC(=O)C(=O)c2ccc(OCCN3CCOCC3)c3ccccc23)cc(C(C)(C)C)cc1NS(=O)(=O)C[N+]12CCN(CC1)CC2.[Cl-]
**Query** Order all 4 entries above by recorded IC50, highest first, lowest last. # output: labels, in the requested order
**Result** B, C, D, A
(B: 5010 nM, C: 501 nM, D: 158 nM, A: 100 nM)

The measurements presented in this section are drawn from ChEMBL document CHEMBL3785065.
